# measured-target: P2X purinoceptor 2 (Homo sapiens)
# procedure-details: Antagonist activity at human P2X2R transfected in human 1321N1 cells assessed as inhibition of ATP-induced calcium influx relative to control
# Assay type: cell-based
# condition-notes: concentration not given here
Threshold rule: inhibition greater than or equal to 20% is Yes; below that, No.

Before answering, review these 6 worked examples.
1) CC1(C)O[C@@H]2[C@H](O1)[C@@H](C(=O)N[C@@H](CCC(=O)O)C(=O)O)O[C@H]2n1cnc2c(N)ncnc21 :: No
2) CC1(C)O[C@@H]2[C@H](O1)[C@@H](COP(=O)(O)OP(=O)(O)OP(=O)(O)O)O[C@H]2n1cnc2c(N)ncnc21 :: No
3) Nc1ncnc2c1ncn2[C@@H]1O[C@H](COP(=O)(O)OP(=O)(O)OP(=O)(O)O)[C@H]2OCO[C@H]21 :: Yes
4) Nc1ncnc2c1ncn2[C@@H]1O[C@H](COP(=O)(O)OP(=O)(O)OP(=O)(O)O)[C@H]2O[C@H](c3ccccc3)O[C@H]21 :: No
5) CC1(C)O[C@@H]2[C@H](O1)[C@@H](COC(=O)c1cc(C(=O)O)c(C(=O)O)cc1C(=O)O)O[C@H]2n1cnc2c(N)ncnc21 :: Yes
6) Nc1ncnc2c1ncn2[C@@H]1O[C@H](COP(=O)(O)CP(=O)(O)OP(=O)(O)O)[C@H]2OC3(CCCCC3)O[C@H]21 :: No

Shift focus to the following entry.
## Task Decide: inhibition of `Nc1ncnc2c1ncn2[C@@H]1O[C@H](COP(=O)(O)OP(=O)(O)OP(=O)(O)O)[C@H]2O[C@@H](c3ccccc3)O[C@H]21` >= 20%?
## Result No

Hello, the source for this data is ChEMBL document CHEMBL4433213, in case you need it.
